PROTOCOL DESCRIPTION: Chemical stability in simulated gastric fluid (SGF)
Assay type: physicochemical
MEASUREMENT SETUP: SGF without enzymes, pH=1,4; 10 µm; 2 hours at 37°C; substance amount in % after thermostatting

[
  {
    "SMILES REPR": "Cn1cc(-c2ccc(-c3cncc4ncc(C(=O)N5CCC5)cc34)cc2)cn1",
    "UNIT TEXT": "%",
    "Stability in SGF, %": 100
  },
  {
    "SMILES REPR": "CN(C)c1ccc(-c2cnc3[nH]cc(C(=O)c4ccncc4)c3c2)cc1",
    "UNIT TEXT": "%",
    "Stability in SGF, %": 100
  },
  {
    "SMILES REPR": "O=C(C1CN(c2cc(F)c3ncn(-c4ccc(-c5cn[nH]c5)cc4)c3c2)C1)N1CCOCC1",
    "UNIT TEXT": "%",
    "Stability in SGF, %": 100
  },
  {
    "SMILES REPR": "O=C(c1ccc2ncn(-c3ccc(-c4cn[nH]c4)cc3)c2c1)N1CCC1",
    "UNIT TEXT": "%",
    "Stability in SGF, %": 99.5
  },
  {
    "SMILES REPR": "COc1ccc(-n2cnc3ccc(N4CC(C(=O)N5CCOCC5)C4)cc32)cc1",
    "UNIT TEXT": "%",
    "Stability in SGF, %": 98.1
  },
  {
    "SMILES REPR": "CN(C)c1ccc(-c2cnc3[nH]cc(C(=O)c4ccncc4)c3c2)cc1O",
    "UNIT TEXT": "%",
    "Stability in SGF, %": 99.5
  },
  {
    "SMILES REPR": "Cn1cc(-c2ccc(-c3cncc4ncc(C(=O)N5CC[C@@H](O)C5)cc34)cc2)cn1",
    "UNIT TEXT": "%",
    "Stability in SGF, %": 100
  },
  {
    "SMILES REPR": "Cn1cc(-c2ccc(-c3cncc4ncc(N5CCCC5=O)cc34)cc2)cn1",
    "UNIT TEXT": "%",
    "Stability in SGF, %": 100
  },
  {
    "SMILES REPR": "COC1CN(C(=O)c2ccc3nccc(-c4ccc(-c5cn[nH]c5)cc4)c3c2)C1",
    "UNIT TEXT": "%",
    "Stability in SGF, %": 100
  },
  {
    "SMILES REPR": "Cn1cc(-c2ccc(-n3cnc4ccc(C(=O)N5CCC5)cc43)cc2)cn1",
    "UNIT TEXT": "%",
    "Stability in SGF, %": 100
  },
  {
    "SMILES REPR": "O=C(c1ccc2ncn(-c3ccc(-c4cn[nH]c4)cc3)c2c1)N1CCCCC1",
    "UNIT TEXT": "%",
    "Stability in SGF, %": 100
  },
  {
    "SMILES REPR": "O=C(C1CN(c2ccc3ncn(-c4ccc(-c5cn[nH]c5)cc4)c3c2)C1)N1CCOCC1",
    "UNIT TEXT": "%",
    "Stability in SGF, %": 98.2
  },
  {
    "SMILES REPR": "CN(C)c1ccc(-c2cnc3[nH]cc(C(=O)c4cccnc4)c3c2)c(C#N)c1",
    "UNIT TEXT": "%",
    "Stability in SGF, %": 100
  },
  {
    "SMILES REPR": "COc1cc(-c2cnc3[nH]cc(C(=O)c4ccccn4)c3c2)ccc1N(C)C",
    "UNIT TEXT": "%",
    "Stability in SGF, %": 100
  },
  {
    "SMILES REPR": "O=C(c1ccncc1)c1c[nH]c2ncc(-c3ccc(N4CCOCC4)c(O)c3)cc12",
    "UNIT TEXT": "%",
    "Stability in SGF, %": 98.1
  },
  {
    "SMILES REPR": "COc1cc(-c2cnc3[nH]cc(C(=O)c4cccnc4)c3c2)ccc1N(C)C",
    "UNIT TEXT": "%",
    "Stability in SGF, %": 100
  },
  {
    "SMILES REPR": "O=C(c1ccnc2ccc(-c3ccc(-c4cn[nH]c4)cc3)cc12)N1CCCCC1",
    "UNIT TEXT": "%",
    "Stability in SGF, %": 99.9
  },
  {
    "SMILES REPR": "CN(C)c1ccc(-c2cnc3[nH]cc(C(=O)c4cccnc4)c3c2)cc1O",
    "UNIT TEXT": "%",
    "Stability in SGF, %": 99.2
  },
  {
    "SMILES REPR": "Cn1cc(-c2ccc(-c3ccnc4ccc(N5CCCC5=O)cc34)cc2)cn1",
    "UNIT TEXT": "%",
    "Stability in SGF, %": 99.7
  },
  {
    "SMILES REPR": "NC(=O)c1ccc(-n2cnc3ccc(N4CC(C(=O)Nc5ccccc5)C4)cc32)cc1",
    "UNIT TEXT": "%",
    "Stability in SGF, %": 98.9
  },
  {
    "SMILES REPR": "CN1CCN(C(=O)c2cnc3cncc(-c4ccc(N(C)C)cc4)c3c2)CC1",
    "UNIT TEXT": "%",
    "Stability in SGF, %": 95.4
  },
  {
    "SMILES REPR": "Cn1cc(-c2ccc(-c3cncc4ncc(C(=O)N5CCCC5)cc34)cc2)cn1",
    "UNIT TEXT": "%",
    "Stability in SGF, %": 100
  },
  {
    "SMILES REPR": "Cn1cc(-c2ccc(-c3ccc4nccc(C(=O)N5CCCCC5)c4c3)cc2)cn1",
    "UNIT TEXT": "%",
    "Stability in SGF, %": 100
  },
  {
    "SMILES REPR": "COc1cc(-c2cnc3[nH]cc(C(=O)c4cccnc4)c3c2)ccc1N1CCOCC1",
    "UNIT TEXT": "%",
    "Stability in SGF, %": 100
  },
  {
    "SMILES REPR": "COc1cccc(C(=O)c2c[nH]c3ncc(-c4ccc(N(C)C)cc4)cc23)c1",
    "UNIT TEXT": "%",
    "Stability in SGF, %": 99.5
  },
  {
    "SMILES REPR": "Cn1cc(-c2ccc(-c3cncc4ncc(N5CC(C(=O)N6CCOCC6)C5)cc34)cc2)cn1",
    "UNIT TEXT": "%",
    "Stability in SGF, %": 100
  },
  {
    "SMILES REPR": "O=C(c1ccccn1)c1c[nH]c2ncc(-c3ccc(N4CCOCC4)c(O)c3)cc12",
    "UNIT TEXT": "%",
    "Stability in SGF, %": 100
  },
  {
    "SMILES REPR": "COCCNC(=O)c1ccc2nccc(-c3ccc(-c4cnn(C)c4)cc3)c2c1",
    "UNIT TEXT": "%",
    "Stability in SGF, %": 100
  },
  {
    "SMILES REPR": "COc1ccc(-c2cnc3[nH]cc(C(=O)c4ccncc4)c3c2)cc1",
    "UNIT TEXT": "%",
    "Stability in SGF, %": 100
  },
  {
    "SMILES REPR": "O=C(c1ccccn1)c1c[nH]c2ncc(-c3ccc(N4CCOCC4)cc3)cc12",
    "UNIT TEXT": "%",
    "Stability in SGF, %": 100
  },
  {
    "SMILES REPR": "COCCNC(=O)c1cnc2cncc(-c3ccc(-c4cnn(C)c4)cc3)c2c1",
    "UNIT TEXT": "%",
    "Stability in SGF, %": 100
  },
  {
    "SMILES REPR": "COC1CN(C(=O)c2cnc3cncc(-c4ccc(-c5cnn(C)c5)cc4)c3c2)C1",
    "UNIT TEXT": "%",
    "Stability in SGF, %": 99.3
  },
  {
    "SMILES REPR": "COc1cc(-c2cnc3[nH]cc(C(=O)c4ccccn4)c3c2)ccc1N1CCOCC1",
    "UNIT TEXT": "%",
    "Stability in SGF, %": 100
  },
  {
    "SMILES REPR": "Cn1cc(-c2ccc(-n3cnc4ccc(N5CC(C(=O)N6CCOCC6)C5)c(F)c43)cc2)cn1",
    "UNIT TEXT": "%",
    "Stability in SGF, %": 99.4
  },
  {
    "SMILES REPR": "COc1ccc(-c2cnc3[nH]cc(C(=O)c4cccnc4)c3c2)c(C#N)c1",
    "UNIT TEXT": "%",
    "Stability in SGF, %": 100
  }
]

The reported numbers originate from patent EP3666770A1.
